Where do these numbers come from? They come from patent US20230212172A1.

tested on: C. parvum; assay: In vitro inhibition of C. parvum development in HCT-8 cells; assay type: cell-based; conditions: Cryptosporidium parvum; HCT-8 cells, Table 4; read-out: EC50 for inhibition of C. parvum development in HCT-8 cells
Result type: EC50

1) O=C(Cc1c(F)c(F)c(F)c(F)c1F)N1CCN(c2ccc3nncn3n2)CC1: > 50000 nM
2) Cc1ccc(CC(=O)N2CCN(c3ccc4nncn4n3)CC2)cc1Cl: 1260 nM
3) O=C(Cc1ccc(F)c(C(F)(F)F)c1)N1CCN(c2ccc3nncn3n2)CC1: 68.7 nM
4) O=C(Cc1cccc(Br)c1)N1CCN(c2ccc3nncn3n2)CC1: 2290 nM

Incoming: # query: EC50 of entry CC(C)(C)OC(=O)NCCCc1ccc(CC(=O)N2CCN(c3ccc4nncn4n3)CC2)cc1
Outgoing: > 50000 nM

Incoming: # query: EC50 of entry O=C(Cc1ccccc1Cl)N1CCN(c2ccc3nncn3n2)CC1
Outgoing: > 25000 nM

Incoming: # query: EC50 of entry O=C(Cc1cccc(Cl)c1Cl)N1CCN(c2ccc3nncn3n2)CC1
Outgoing: > 25000 nM
